B1: TPR t1 (parent)
chain: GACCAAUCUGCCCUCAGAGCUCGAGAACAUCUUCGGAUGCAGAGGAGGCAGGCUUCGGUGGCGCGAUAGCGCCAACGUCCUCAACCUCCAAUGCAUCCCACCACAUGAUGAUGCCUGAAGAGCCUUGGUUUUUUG

Variants of: B1
procedureSummary: polymerase ribozyme fitness, log enrichment relative to wild type (log ratio); higher = more active; in vitro selection for triplet polymerase activity
Each record gets a class by polymerase ribozyme fitness (log ratio): Low (below -4), Mid (-4 to below -2), High (-2 or more)

Take a look at these entries with their results.
• U92A G113A = Mid
• U32C C72A C82A A83U = High
• C62A C72U A75C C85A U129C = Mid
• C15U G44U G63C A66U G117U G128A = Low
• A24G G42U G60U C88G A121G = High
• C80A U130C = Mid
• G47C A90U = Low
• A68U A111C = Low

Lab note: sort C72G A83G into the matching polymerase ribozyme fitness (log ratio) band.
High

Lab note: sort A24G U87A into the matching polymerase ribozyme fitness (log ratio) band.
High

Lab note: sort G36A A37G C70A into the matching polymerase ribozyme fitness (log ratio) band.
Mid

Lab note: sort C4U C49U U78A into the matching polymerase ribozyme fitness (log ratio) band.
High

Lab note: sort G77A G120A G128C into the matching polymerase ribozyme fitness (log ratio) band.
Mid

Lab note: sort U9G C34G A121U into the matching polymerase ribozyme fitness (log ratio) band.
Low

Lab note: sort C12G C72G U87C into the matching polymerase ribozyme fitness (log ratio) band.
High
